meta.source: patent US20240173432A1

Tested on: CUG foci in primary DM1 patient myoblasts
experiment_notes: Dual-cut screening: FISH staining of CUG RNA foci
Type: cell-based, human
condition_label: sgRNA pair; primary DM1 patient myoblasts; vehicle (DMSO)
measured_attribute: % of CUG foci free nuclei (Vehicle) (%)

| substance | tested_on | measured_attribute | observed_measurement |
| --- | --- | --- | --- |
| SluU08 + SluD14 (guide 1 GCCCCGTTGGAAGACTGAGTGC; guide 2 ATGGGCAAACTGCAGGCCTGGG; guide RNA; listed as DNA, chemistry not fully specified) | CUG foci in primary DM1 patient myoblasts | % of CUG foci free nuclei (Vehicle) | 56.37 |
| SluU59 + SluD48 (guide 1 CGCGGCCGGCGAACGGGGCTCG; guide 2 GAGAGCAGCGCAAGTGAGGAGG; guide RNA; listed as DNA, chemistry not fully specified) | CUG foci in primary DM1 patient myoblasts | % of CUG foci free nuclei (Vehicle) | 62.15 |
| SluU08 + SluD48 (guide 1 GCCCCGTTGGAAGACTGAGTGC; guide 2 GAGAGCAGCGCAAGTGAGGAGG; guide RNA; listed as DNA, chemistry not fully specified) | CUG foci in primary DM1 patient myoblasts | % of CUG foci free nuclei (Vehicle) | 64.93 |
